# Tested on: Escherichia coli TOP10
# protocolNotes: shrunken log2 fold change of peptide-encoding DNA abundance (4.5 h post-induction vs induction); higher = less antimicrobial activity (less host growth inhibition)
# experimentalConditions: time post-induction: 4.5 h; library: site-saturation at positions 5, 18, 19, 20
reportedMetric: shrunken log2 fold change
Quick one: just the number, no unit, thanks!

RRIRPRPPRLPRPRPRPDEIPRP    -0.144
RRIRWRPPRLPRPRPRPHFTPRP    -0.306
RRIRVRPPRLPRPRPRPCPDPRP    -0.0269
RRIRYRPPRLPRPRPRPWSDPRP    -0.0783

Query sequence follows.
Give recorded shrunken log2 fold change with Escherichia coli TOP10 for the following sequence: `RRIRKRPPRLPRPRPRPQYYPRP` -0.359

====

# System: Escherichia coli TOP10
# protocolNotes: shrunken log2 fold change of peptide-encoding DNA abundance (4.5 h post-induction vs induction); higher = less antimicrobial activity (less host growth inhibition)
# experimentalConditions: time post-induction: 4.5 h; library: site-saturation at positions 5, 18, 19, 20
shrunken log2 fold change of 0.05 or higher: 1. Under 0.05: -1.

Answered examples (3):
RRIRWRPPRLPRPRPRPRTRPRP    1
RRIRQRPPRLPRPRPRPPGLPRP    1
RRIRCRPPRLPRPRPRPGTRPRP    1

Please tell me: is the sequence `RRIRTRPPRLPRPRPRPIETPRP` at or over 0.05 in terms of shrunken log2 fold change? 1

Please tell me: is the sequence `RRIRWRPPRLPRPRPRPNAFPRP` at or over 0.05 in terms of shrunken log2 fold change? 1

====

# System: Escherichia coli TOP10
# protocolNotes: shrunken log2 fold change of peptide-encoding DNA abundance (4.5 h post-induction vs induction); higher = less antimicrobial activity (less host growth inhibition)
# experimentalConditions: time post-induction: 4.5 h; library: site-saturation at positions 5, 18, 19, 20
reportedMetric: shrunken log2 fold change
Quick one: just the number, no unit, thanks!

Which value of shrunken log2 fold change has been reported for `RRIRARPPRLPRPRPRPIKIPRP` in the records? -0.095

Which value of shrunken log2 fold change has been reported for `RRIRGRPPRLPRPRPRPVLAPRP` in the records? 0.773

Which value of shrunken log2 fold change has been reported for `RRIRFRPPRLPRPRPRPSDNPRP` in the records? -0.527

====

Below, each of the sequences is paired with its reported shrunken log2 fold change value.
# Test system: Escherichia coli TOP10
# protocolNotes: shrunken log2 fold change of peptide-encoding DNA abundance (4.5 h post-induction vs induction); higher = less antimicrobial activity (less host growth inhibition)
# experimentalConditions: time post-induction: 4.5 h; library: site-saturation at positions 5, 18, 19, 20
Quick one: just the number, no unit, thanks!

RRIRTRPPRLPRPRPRPSCDPRP    -0.347
RRIRYRPPRLPRPRPRPYSTPRP    -0.648
RRIRFRPPRLPRPRPRPGKRPRP    -0.0962

Query sequence follows.
Which value of shrunken log2 fold change has been reported for `RRIRLRPPRLPRPRPRPYRMPRP` in the records? -1.54

====

# System: Escherichia coli TOP10;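 note: peptides expressed intracellularly from a pBAD plasmid library in pooled LB shake-flask culture, induced with 0.3% L-arabinose, DNA abundance read by NGS, three biological replicates, DESeq2 with apeglm shrinkage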
# protocolNotes: shrunken log2 fold change of peptide-encoding DNA abundance (4.5 h post-induction vs induction); higher = less antimicrobial activity (less host growth inhibition)
# experimentalConditions: time post-induction: 4.5 h; library: site-saturation at positions 5, 18, 19, 20
reportedMetric: shrunken log2 fold change
Quick one: just the number, no unit, thanks!

Worked examples, 5 sequences total:
RRIRTRPPRLPRPRPRPAPKPRP    0.371
RRIRVRPPRLPRPRPRPHETPRP    -0.0244
RRIRPRPPRLPRPRPRPPDSPRP    0.326
RRIRRRPPRLPRPRPRPHDCPRP    0.00386
RRIRYRPPRLPRPRPRPTGAPRP    0.136

Query sequence follows.
Give recorded shrunken log2 fold change with Escherichia coli TOP10 for the following sequence: `RRIRTRPPRLPRPRPRPLMMPRP` -0.314

Source: the supplement of paper PMC9112550
